Assay: Pharmacokinetics of salicylamine
Assay type: in vivo
Conditions: plasma; read-out: half life (t1/2) in plasma

- compound: "NCc1ccccc1O [salicylamine, 2-hydroxy-benzylamine]"
  half-life: "~1 h"
